# test description: Acute toxicity after intraperitoneal dose at 33 mg/kg in mice
# Assay type: organism-based
# Set-up: dose 33 mg/kg, route intraperitoneal
# experimental context: mouse, in vivo, ip, read-out: Lethality
assay readout: mortality (%)

[
  {
    "smiles text": "C=CCCCCCCCCC(=O)NCc1ccc(O)c(OC)c1",
    "assay readout": "mortality",
    "units of measure": "%",
    "recorded value": 50
  }
]

* * *

# test description: Acute toxicity after intraperitoneal dose at 50 mg/kg
# Assay type: organism-based
# Set-up: dose 50 mg/kg, route intraperitoneal
# experimental context: mouse, in vivo, ip, read-out: Lethality

[
  {
    "smiles text": "CCCCCCCCCCCC(=O)NCc1ccc(O)c(OC)c1",
    "units of measure": "%",
    "mortality": 100
  }
]

* * *

# test description: Acute toxicity after intraperitoneal dose at 4 mg/kg in mice
# Type: organism-based
# Set-up: dose 4 mg/kg, route intraperitoneal
# experimental context: mouse, in vivo, ip, read-out: Lethality

[
  {
    "smiles text": "CCCCCCCCNC(=O)Cc1ccc(O)c(OC)c1",
    "units of measure": "%",
    "mortality": 50
  }
]

* * *

# test description: Acute toxicity after intraperitoneal dose at 400 mg/kg in mice
# Type: organism-based
# Design: dose 400 mg/kg, route intraperitoneal
# experimental context: mouse, in vivo, ip, read-out: Lethality
assay readout: mortality (%)

[
  {
    "smiles text": "CCCCCCC/C=C\\CCCCCCCCC(=O)NCc1ccc(O)c(OC)c1",
    "recorded value": 30
  }
]

* * *

# test description: Acute toxicity after intraperitoneal dose at 50 mg/kg in mice
# Type: organism-based
# Set-up: dose 50 mg/kg, route intraperitoneal
# experimental context: mouse, in vivo, ip, read-out: Lethality
// reported mortality for each item listed
assay readout: mortality (%)

[
  {
    "smiles text": "CCCCCCCCCCCCCCCCCC(=O)NCc1ccc(O)c(OC)c1",
    "units of measure": "%",
    "recorded value": 0
  },
  {
    "smiles text": "COc1cc(CNC(=O)CCCCCc2ccccc2)ccc1O",
    "units of measure": "%",
    "recorded value": 70
  },
  {
    "smiles text": "COc1cc(CNC(=O)CCCCc2ccccc2)ccc1O",
    "units of measure": "%",
    "recorded value": 90
  },
  {
    "smiles text": "COc1cc(CNC(=O)CCCCCCc2ccccc2)ccc1O",
    "units of measure": "%",
    "recorded value": 60
  },
  {
    "smiles text": "CCCCCCC(=O)NCc1ccc(O)c(OC)c1",
    "units of measure": "%",
    "recorded value": 85
  },
  {
    "smiles text": "COc1cc(CNC(=O)CCCc2ccccc2)ccc1O",
    "units of measure": "%",
    "recorded value": 75
  }
]

* * *

# test description: Acute toxicity after intraperitoneal dose at 8 mg/kg in mice
# Format: organism-based
# Parameters: dose 8 mg/kg, route intraperitoneal
# experimental context: mouse, in vivo, ip, read-out: Lethality

[
  {
    "compound": "CCCCCCCCC(=O)NCc1ccc(O)c(OC)c1 [NONIVAMIDE]",
    "mortality / %": 50
  }
]

* * *

# test description: Acute toxicity after intraperitoneal dose at 50 mg/kg in mice
# Type: organism-based
# Design: dose 50 mg/kg, route intraperitoneal
# experimental context: mouse, in vivo, ip, read-out: Lethality

[
  {
    "smiles text": "CCCCCCCCCC(=O)NCc1ccc(O)c(OC)c1",
    "units of measure": "%",
    "mortality": 80
  },
  {
    "smiles text": "CCCCCCCCCCCCNC(=O)Cc1ccc(O)c(OC)c1",
    "units of measure": "%",
    "mortality": 0
  },
  {
    "smiles text": "CCCCCC(=O)NCc1ccc(O)c(OC)c1",
    "units of measure": "%",
    "mortality": 60
  },
  {
    "smiles text": "CCCCCc1ccc(C(=O)NCc2ccc(O)c(OC)c2)cc1",
    "units of measure": "%",
    "mortality": 60
  },
  {
    "smiles text": "CCCCCCCCCCC(=O)NCc1ccc(O)c(OC)c1",
    "units of measure": "%",
    "mortality": 80
  },
  {
    "smiles text": "CCCCCCCC(=O)NCc1ccc(O)c(OC)c1",
    "units of measure": "%",
    "mortality": 90
  },
  {
    "smiles text": "C#CCCCCCCCCC(=O)NCc1ccc(O)c(OC)c1",
    "units of measure": "%",
    "mortality": 90
  }
]

* * *

# test description: Acute toxicity after intraperitoneal dose at 100 mg/kg in mice
# Type: organism-based
# Parameters: dose 100 mg/kg, route intraperitoneal
# experimental context: mouse, in vivo, ip, read-out: Lethality
assay readout: mortality (%)

[
  {
    "molecule": "C=CCCCCCCCCNC(=O)Cc1ccc(O)c(OC)c1",
    "units of measure": "%",
    "recorded value": 90
  },
  {
    "molecule": "CCCCCCCCCC(C)CCCCCCCC(=O)NCc1ccc(O)c(OC)c1 (centres undefined)",
    "units of measure": "%",
    "recorded value": 40
  },
  {
    "molecule": "CCCC(=O)NCc1ccc(O)c(OC)c1",
    "units of measure": "%",
    "recorded value": 40
  },
  {
    "molecule": "CCCCC(=O)NCc1ccc(O)c(OC)c1",
    "units of measure": "%",
    "recorded value": 60
  }
]

* * *

# test description: Acute toxicity after intraperitoneal dose at 200 mg/kg in mice
# Assay type: organism-based
# Set-up: dose 200 mg/kg, route intraperitoneal
# experimental context: mouse, in vivo, ip, read-out: Lethality
assay readout: mortality (%)

[
  {
    "smiles text": "C=C(CCCCCCCCC)CCCCCCCC(=O)NCc1ccc(O)c(OC)c1",
    "assay readout": "mortality",
    "recorded value": 60
  },
  {
    "smiles text": "CCCCCCCCCC/C=C\\CCCCCC(=O)NCc1ccc(O)c(OC)c1",
    "assay readout": "mortality",
    "recorded value": 30
  },
  {
    "smiles text": "CCCCCCC/C=C/CCCCCCCCC(=O)NCc1ccc(O)c(OC)c1",
    "assay readout": "mortality",
    "recorded value": 60
  },
  {
    "smiles text": "CCCCCCC/C=C\\CCCCCCCCCC(=O)NCc1ccc(O)c(OC)c1",
    "assay readout": "mortality",
    "recorded value": 40
  },
  {
    "smiles text": "CCCC/C=C/C/C=C\\CCCCCCCCC(=O)NCc1ccc(O)c(OC)c1.CCCCC/C=C/C=C\\CCCCCCCCC(=O)NCc1ccc(O)c(OC)c1",
    "assay readout": "mortality",
    "recorded value": 0
  },
  {
    "smiles text": "CCCCCCCC#CCCCCCCCCC(=O)NCc1ccc(O)c(OC)c1",
    "assay readout": "mortality",
    "recorded value": 70
  },
  {
    "smiles text": "CCCCC/C=C\\CCCCCCCCC(=O)NCc1ccc(O)c(OC)c1",
    "assay readout": "mortality",
    "recorded value": 10
  },
  {
    "smiles text": "CCCCC/C=C\\CCCCCCCCCCC(=O)NCc1ccc(O)c(OC)c1",
    "assay readout": "mortality",
    "recorded value": 30
  },
  {
    "smiles text": "COc1cc(CC(=O)NC2CCCCCCC2)ccc1O",
    "assay readout": "mortality",
    "recorded value": 80
  },
  {
    "smiles text": "CCCCCCCC[C@H]1O[C@H]1CCCCCCCC(=O)NCc1ccc(O)c(OC)c1",
    "assay readout": "mortality",
    "recorded value": 40
  },
  {
    "smiles text": "CCCCCCC/C=C\\CCCCCCCCCCCCC(=O)NCc1ccc(O)c(OC)c1",
    "assay readout": "mortality",
    "recorded value": 0
  },
  {
    "smiles text": "CCCCCCCC/C=C\\CCCCCCCCNC(=O)Cc1ccc(O)c(OC)c1",
    "assay readout": "mortality",
    "recorded value": 50
  },
  {
    "smiles text": "CCCCCCCCCC/C=C/CCCCCC(=O)NCc1ccc(O)c(OC)c1",
    "assay readout": "mortality",
    "recorded value": 60
  }
]

* * *

# test description: Acute toxicity after intraperitoneal dose at 15 mg/kg in mice
# Assay type: organism-based
# Parameters: dose 15 mg/kg, route intraperitoneal
# experimental context: mouse, in vivo, ip, read-out: Lethality

[
  {
    "smiles text": "CCCCCCCCCCCC(=O)NCc1ccc(O)c(OC)c1",
    "mortality / %": 25
  },
  {
    "smiles text": "CCCCCCCCCNC(=O)Cc1ccc(O)c(OC)c1",
    "mortality / %": 86
  },
  {
    "smiles text": "CCCCCCCCCCNC(=O)Cc1ccc(O)c(OC)c1",
    "mortality / %": 100
  },
  {
    "smiles text": "CCCCCCCNC(=O)Cc1ccc(O)c(OC)c1",
    "mortality / %": 100
  }
]
